System: NCI-H460 lung
assay-protocol: NCI tumour cell line growth inhibition, 48 h
assay-endpoint: TGI

The examples below pair each entry with its known result.
>  <compound>
CCOC(=O)C1=C(Nc2cccc3ccccc23)OC/C1=N\NC(=O)c1ccccc1O

>  <tested-system>
NCI-H460 lung

>  <TGI>
> 71.4 µM

$$$$
>  <compound>
CC(C)C/C=C/C1=NN(c2cccc(S(=O)(=O)O)c2)C2(C1)SCC(=O)N2c1nc2ccccc2s1 (centres undefined)

>  <tested-system>
NCI-H460 lung

>  <TGI>
> 100 µM

$$$$

Enter reported TGI observed with NCI-H460 lung for `CCCCOCCOC1=CC(=O)c2c(O)ccc(O)c2C1=O` 3.43 µM

// lookup TGI | system=NCI-H460 lung | key= `CCc1nnc(-c2nsc3ccccc23)s1` > 100 µM
